Tested on: DMS 114 tumor spheroids, viability % test/control
ASSAY: Anticancer human tumor DMS 114 cell line growth inhibition;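 note: spheroids exposed to compounds for 7 days before read-out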
SETTINGS: curve of first compound; second compound 0.3 µM; spheroids with HUVEC and MSC
Procedure: Multicellular complex tumor spheroid response to DNA repair inhibitors in combination with DNA-damaging drugs This study explores the anticancer activities of DNA-damaging drugs and inhibitors of DNA damage repair, both as single agents and in combinations. […] Twenty-six patient-derived or established malignant cell lines were evaluated representing sarcoma, melanoma, small cell lung cancer (SCLC), non-small cell lung cancer (NSCLC), as well as bladder, ovarian and pancreatic cancers. […]
MEASURED QUANTITY: IC50

[[record]]
compound = "COc1cc(C)[nH]c(=O)c1CN1CCc2c(Cl)cc(C(OC)C3COC3)c(Cl)c2C1=O (stereo not given) + CC[C@@]1(O)C(=O)OCc2c1cc1n(c2=O)Cc2cc3c(CN(C)C)c(O)ccc3nc2-1"
system = "DMS 114 tumor spheroids, viability % test/control"
observed_result = "< 31.6 nM"

[[record]]
compound = "Cc1cc(C)c(CNC(=O)c2cc(-c3ccc(CN4CCOCC4)cc3)cc3c2cnn3C2CCCC2)c(=O)[nH]1 + CC[C@@]1(O)C(=O)OCc2c1cc1n(c2=O)Cc2cc3c(CN(C)C)c(O)ccc3nc2-1"
system = "DMS 114 tumor spheroids, viability % test/control"
observed_result = "< 31.6 nM"

[[record]]
compound = "CNCc1ccc(-c2cc(-c3nc(-c4ccc(S(=O)(=O)C(C)C)cc4)cnc3N)on2)cc1 + CC[C@@]1(O)C(=O)OCc2c1cc1n(c2=O)Cc2cc3c(CN(C)C)c(O)ccc3nc2-1"
system = "DMS 114 tumor spheroids, viability % test/control"
observed_result = "< 9.49 nM"

[[record]]
compound = "O=C(c1cc(Cc2n[nH]c(=O)c3ccccc23)ccc1F)N1CCN(C(=O)C2CC2)CC1 + CC[C@@]1(O)C(=O)OCc2c1cc1n(c2=O)Cc2cc3c(CN(C)C)c(O)ccc3nc2-1"
system = "DMS 114 tumor spheroids, viability % test/control"
observed_result = "< 94.9 nM"


# context switch: different compound, same IC50
input: Param request: IC50 | system DMS 114 tumor spheroids, viability % test/control | item [2H]c1nc(C)nc([2H])c1-c1cc(NC[C@@H](C)c2cccc3c(C(=O)NC)ccnc23)ncn1 + CC[C@@]1(O)C(=O)OCc2c1cc1n(c2=O)Cc2cc3c(CN(C)C)c(O)ccc3nc2-1
output: < 31.6 nM

---

Test system: DMS 114 tumor spheroids, viability % test/control
ASSAY: Anticancer human tumor DMS 114 cell line growth inhibition;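 note: spheroids exposed to compounds for 7 days before read-out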
SETTINGS: curve of first compound; second compound 10 µM; spheroids with HUVEC and MSC
Give measured IC50 for each item. Keep answers brief.
Numbers only, in nM.

These recorded examples may help you get a feel for the data.
[[record]]
molecule = "CC1COCCN1c1cc(-c2ccnn2C)c2ccnc(-c3ccn[nH]3)c2n1 (stereo not drawn) + Cn1nnc2c(C(N)=O)ncn2c1=O"
u = "nM"
observed_result = 33.9

[[record]]
molecule = "O=C(c1cc(Cc2n[nH]c(=O)c3ccccc23)ccc1F)N1CCN(C(=O)C2CC2)CC1 + Cn1nnc2c(C(N)=O)ncn2c1=O"
u = "nM"
observed_result = 10200


# context switch: different molecule, same IC50
input: Respond only with IC50 recorded for Cc1sc2c(c1C)C(c1ccc(Cl)cc1)=NC(CC(=O)Nc1ccc(O)cc1)c1nnc(C)n1-2 (stereo not drawn) + Cn1nnc2c(C(N)=O)ncn2c1=O
output: 170

// data source = PubChem BioAssay AID1845202
